Assignment: determine reported total protein half-life in vivo for the given sequences.
assay: total protein half-life in vivo (active degradation + dilution); higher = more stable protein; conditions: wild type E. coli NCM3722; growth: N-lim chemostat; doubling time 12 h
Kindly provide the numeric value in h only, without the unit symbol.

Item: MKMNKSLIVLCLSAGLLASAPGISLADVNYVPQNTSDAPAIPSAALQQLTWTPVDQSKTQTTQLATGGQQLNVPGISGPVAAYSVPANIGELTLTLTSEVNKQTSVFAPNVLILDQNMTPSAFFPSSYFTYQEPGVMSADRLEGVMRLTPALGQQKLYVLVFTTEKDLQQTTQLLDPAKAYAKGVGNSIPDIPDPVARHTTDGLLKLKVKTNSSSSVLVGPLFGSSAPAPVTVGNTAAPAVAAPAPAPVKKSEPMLNDTESYFNTAIKNAVAKGDVDKALKLLDEAERLGSTSARSTFISSVKGKG | total protein half-life in vivo: 7.51

// field: total protein half-life in vivo; key: MCTTCGCGEGNLYIEGDEHNPHSAFRSAPFAPAARPKMKITGIKAPEFTPSQTEEGDLHYGHGEAGTHAPGMSQRRMLEVEIDVLDKNNRLAERNRARFAARKQLVLNLVSSPGSGKTTLLTETLMRLKDSVPCAVIEGDQQTVNDAARIRATGTPAIQVNTGKGCHLDAQMIADAAPRLPLDDNGILFIENVGNLVCPASFDLGEKHKVAVLSVTEGEDKPLKYPHMFAAASLMLLNKVDLLPYLNFDVEKCIACAREVNPEIEIILISATSGEGMDQWLNWLETQRCA [P0AAN3] ; value = 3.83
